Multiple publications report log10 IC50 for 72 kDa type IV collagenase (Homo sapiens, UniProt P08253); what follows is a combined list.
The base-10 logarithm of IC50, taken with IC50 in nM, is what appears here.

Example compounds with recorded log10 IC50:
compound | log10 IC50
O=C(O)[C@@H](Cc1ccccc1)NS(=O)(=O)c1ccc(-c2noc(-c3ccc(F)cc3)n2)cc1 | 1.42
O=C(O)[C@@H]1[C@@H](Cn2nnc3ccc(C(F)(F)F)cc3c2=O)CC[C@H]1C(=O)c1cc2cc(OCCc3ccccc3)ccc2o1 (single isomer, unassigned; enantiomer 2) | 3.23

Task item: What measured log10 IC50 goes with O=C(Nc1ccc(-c2ccc(S(=O)(=O)N[C@H](Cc3ccccc3)C(=O)O)cc2)cc1)c1ccccc1 ?
Reply: 2.57

Task item: What measured log10 IC50 goes with CC(C)[C@H](NS(=O)(=O)c1ccc(-c2noc(-c3ccc(Cl)s3)n2)cc1)C(=O)O ?
Reply: 1.78

Task item: What measured log10 IC50 goes with COc1ccc(Cl)cc1C1(Cn2cccc(C)c2=O)NC(=O)NC1=O (centres unmarked) ?
Reply: 4.79

Task item: What measured log10 IC50 goes with O=C(CC(CCn1nnc2ccccc2c1=O)C(=O)O)c1noc2cc(OCC3CCCCC3)ccc12 (racemic) ?
Reply: 2.62

Task item: What measured log10 IC50 goes with Cc1cc(COc2ccc(S(=O)(=O)CC(N(O)C=O)C3(C)CCC(=O)CC3)cc2)c2ccccc2n1 (centres unmarked) ?
Reply: 4.85

Task item: What measured log10 IC50 goes with COc1ccc(CC(=O)NC(CS(=O)(=O)c2ccc(Sc3ccccc3)cc2)C(=O)NO)c(OC)c1 (centres unmarked) ?
Reply: -0.10

Task item: What measured log10 IC50 goes with CCc1ccc(-c2nc(-c3ccc(S(=O)(=O)N[C@H](Cc4c[nH]c5ccccc45)C(=O)O)s3)no2)cc1 ?
Reply: 0.61

Task item: What measured log10 IC50 goes with CC(C)(CS(=O)(=O)c1ccc(Oc2ccccc2)cc1)[C@H](N)C(=O)NO ?
Reply: -0.52

---

pIC50: −log10 of the molar value.
Multiple publications report pIC50 for 72 kDa type IV collagenase (Homo sapiens); what follows is a combined list.
pIC50 of 5 or higher: YES. Under 5: NO.

Reference set (5 entries):
compound | target.entity | class
CCCCOc1ccc(C(=O)[C@@H]2CC[C@H](Cn3nnc4ccc(C(F)(F)F)cc4c3=O)[C@H]2C(=O)O)cc1 (single isomer, unassigned) | 72 kDa type IV collagenase (Homo sapiens) | YES
CCc1ccc(-c2noc(-c3ccc(S(=O)(=O)N[C@H](Cc4ccccc4)C(=O)O)cc3)n2)cc1 | 72 kDa type IV collagenase (Homo sapiens) | YES
CC1c2cccc(O)c2C(=O)C2=C(O)C3(O)C(=O)C(C(N)=O)=C(O)CC3C(O)C21 (stereo not shown) | 72 kDa type IV collagenase (Homo sapiens) | NO
CC(C)[C@@H](NS(=O)(=O)N1CCN(c2ccc(C#Cc3ccc4c(c3)c(=O)n(Cc3ccc(F)cc3)c(=O)n4C)cc2)CC1)C(=O)O | 72 kDa type IV collagenase (Homo sapiens) | NO
Cc1cc(COc2ccc(S(=O)(=O)CC(C=C3CCC(=NO)CC3)N(O)C=O)cc2)cc(C)n1 (stereo not shown) | 72 kDa type IV collagenase (Homo sapiens) | YES

Could you now consider this next compound?
Task item: Is reported pIC50 greater than or equal to 5 here: CCC(=O)c1cccc2ccc(C#Cc3ccc(N4CCN(S(=O)(=O)N[C@@H](C(=O)O)C(C)C)CC4)cc3)cc12
Reply: NO

---

Multiple publications report IC50 for 72 kDa type IV collagenase (Homo sapiens, UniProt P08253); what follows is a combined list.
Kindly provide the numeric value in nM only, without the unit symbol.

Example compounds with recorded IC50:
compound | recorded.metric | measured.result
O=C(O)[C@@H]1[C@@H](Cn2nnc3ccc(C(F)(F)F)cc3c2=O)CC[C@H]1C(=O)c1ccc(OCc2ccc(F)cc2)cc1 (single isomer, unassigned) | IC50 | 80
COc1ccc(S(=O)(=O)N2[C@H](C(=O)NO)C[C@@H]3CCN(C(C)=O)C[C@@H]32)cc1 (relative stereo) | IC50 | 95
COCC(=O)N1CCN(CC(CS(=O)(=O)c2ccc(OCc3cc(C)nc4ccccc34)cc2)N(O)C=O)CC1 (stereo not drawn) | IC50 | 13000
O=C(CC(CCn1nnc2ccccc2c1=O)C(=O)O)c1noc2cc(OCCc3ccccc3)ccc12 (racemic) | IC50 | 730

Task item: Lab note: need IC50 with 72 kDa type IV collagenase (Homo sapiens, UniProt P08253) for entry CC(C)(CS(=O)(=O)c1ccc(Oc2ccccc2)cc1)[C@H](NC(=O)CN1CCCC1)C(=O)NO , please look it up.
Reply: 1.8

---

Multiple publications report pIC50 for 72 kDa type IV collagenase (Homo sapiens, UniProt P08253); what follows is a combined list.
pIC50: −log10 of the molar value.
pIC50 of 6 or higher: rule met. Under 6: rule not met.

Reference set (3 entries):
compound | class
O=C(CC(CCn1nnc2ccccc2c1=O)C(=O)O)c1cc2cc(OCC3CCOCC3)ccc2o1 (racemic) | rule not met
CC(C)[C@H](C(=O)NO)N(Cc1cccnc1)S(=O)(=O)c1ccc(Br)cc1 | rule met
CCc1ccc(-c2nc(-c3ccc(S(=O)(=O)N[C@@H](C(=O)O)C(C)C)s3)no2)cc1 | rule met

Task item: Is reported pIC50 greater than or equal to 6 here: CC(=O)N1CCC(C(CS(=O)(=O)c2ccc(OCc3cc(C)nc4ccccc34)cc2)N(O)C=O)CC1 (stereo not drawn)
Reply: rule not met

Task item: Is reported pIC50 greater than or equal to 6 here: CC(N)(CS(=O)(=O)c1ccc(NC(=O)c2ccccc2)cc1)C(=O)NO (stereo not drawn)
Reply: rule met

Task item: Is reported pIC50 greater than or equal to 6 here: O=C(NO)C1(CCS(=O)(=O)c2ccc(Oc3ccccc3)cc2)CCNCC1
Reply: rule met

---

Multiple publications report pIC50 for 72 kDa type IV collagenase (Homo sapiens); what follows is a combined list.
// pIC50 here means minus log10 of the molar concentration (mol/L)

molecule | pIC50
Cc1ccc(CCCC(CS(=O)(=O)c2ccc(OCc3cc(C)nc4ccccc34)cc2)N(O)C=O)cc1 (stereo not drawn) | 5.57
Cc1ccc(C#Cc2ccc(S(=O)(=O)N[C@H](Cc3c[nH]c4c(O)cccc34)C(=O)O)s2)cc1 | 8.92
Cc1cc(COc2ccc(S(=O)(=O)CC(CC3CCC4(CC3)OCCO4)N(O)C=O)cc2)c2ccccc2n1 (stereo not drawn) | 5.22
CN(C(=O)OC(C)(C)C)C(C)(CS(=O)(=O)c1ccc(NC(=O)c2ccccc2)cc1)C(=O)NO (stereo not drawn) | 9.00
O=C(CC(CCn1nnc2ccccc2c1=O)C(=O)O)c1cc2ccc(OCC3CC3)cc2s1 (single isomer, unassigned; (+)) | 6.66

Task item: Lab note: need pIC50 with 72 kDa type IV collagenase (Homo sapiens) for entry Cc1ccc2nc(C)cc(COc3ccc(S(=O)(=O)CC(CC4CCC(=NO)CC4)N(O)C=O)cc3)c2c1 (stereo not drawn) , please look it up.
Reply: 5.00

Task item: Lab note: need pIC50 with 72 kDa type IV collagenase (Homo sapiens) for entry O=C(Nc1ccc(S(=O)(=O)CC(O)C(=O)NO)cc1)c1ccccc1 (stereo not drawn) , please look it up.
Reply: 8.55

Task item: Lab note: need pIC50 with 72 kDa type IV collagenase (Homo sapiens) for entry Cc1cccc(COc2ccc(C(=O)[C@@H]3CC[C@H](Cn4nnc5ccc(C(F)(F)F)cc5c4=O)[C@H]3C(=O)O)cc2)c1 (single isomer, unassigned) , please look it up.
Reply: 6.01

Task item: Lab note: need pIC50 with 72 kDa type IV collagenase (Homo sapiens) for entry Cc1cncc(C(CS(=O)(=O)c2ccc(OCc3cc(C)nc4c(F)cccc34)cc2)N(O)C=O)c1 (stereo not drawn) , please look it up.
Reply: 4.47

Task item: Lab note: need pIC50 with 72 kDa type IV collagenase (Homo sapiens) for entry O=C(O)[C@H](Cc1c[nH]c2ccc(F)cc12)NS(=O)(=O)c1ccc(-c2ccc(N3CCCC3)cc2)s1 , please look it up.
Reply: 8.39

Task item: Lab note: need pIC50 with 72 kDa type IV collagenase (Homo sapiens) for entry CC(C)C[C@H](NS(=O)(=O)c1ccc(C#Cc2ccc3ccccc3c2)cc1)C(=O)O , please look it up.
Reply: 6.43

Task item: Lab note: need pIC50 with 72 kDa type IV collagenase (Homo sapiens) for entry Cc1ccc2nc(C)cc(COc3ccc(S(=O)(=O)CC(C=C4CCOCC4)N(O)C=O)cc3)c2c1 (stereo not drawn) , please look it up.
Reply: 4.39

Task item: Lab note: need pIC50 with 72 kDa type IV collagenase (Homo sapiens) for entry O=C(CC(CCn1nnc2ccccc2c1=O)C(=O)O)c1coc2cc(OCC3CCCC3)ccc12 (single isomer, unassigned; (+)) , please look it up.
Reply: 6.31

Task item: Lab note: need pIC50 with 72 kDa type IV collagenase (Homo sapiens) for entry Cc1cc(COc2ccc(S(=O)(=O)CC(C3CCCN(C(=O)OC(C)(C)C)C3)N(O)C=O)cc2)c2ccccc2n1 (stereo not drawn) , please look it up.
Reply: 5.70

Task item: Lab note: need pIC50 with 72 kDa type IV collagenase (Homo sapiens) for entry Cc1cc(COc2ccc(S(=O)(=O)CC(C3CCCN(C(=O)c4ccccc4)C3)N(O)C=O)cc2)c2ccccc2n1 (stereo not drawn) , please look it up.
Reply: 5.36
